Compiled literature pIC50, tested on 3-oxo-5-alpha-steroid 4-dehydrogenase 2 (Homo sapiens, UniProt P31213).
Target: 3-oxo-5-alpha-steroid 4-dehydrogenase 2 (Homo sapiens, UniProt P31213)
Sequence (P31213 whole entry): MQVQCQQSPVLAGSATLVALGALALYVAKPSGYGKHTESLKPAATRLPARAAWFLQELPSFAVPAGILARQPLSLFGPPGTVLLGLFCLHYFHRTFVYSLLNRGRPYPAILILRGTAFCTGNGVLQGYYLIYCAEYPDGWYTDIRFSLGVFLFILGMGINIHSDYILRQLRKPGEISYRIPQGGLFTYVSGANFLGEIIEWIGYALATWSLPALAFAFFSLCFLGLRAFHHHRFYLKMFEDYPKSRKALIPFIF
pIC50: −log10 of the molar value.

MOLECULE	pIC50
C[C@]12CC=C3[C@@H](CCC4=CC(=O)CCN43)C1CCC2=O (some centres undefined)	5.34
CC(=O)[C@@]1(OC(=O)c2ccccc2)CCC2C3CCC4=CC(=O)CC[C@]4(C)C3CC[C@@]21C (some centres undefined)	6.44
CC(N=O)[C@H]1CCC2C3CCC4=CC(=O)CCC4(C)C3CCC21C (some centres undefined)	6.24
CC(=O)[C@@]1(OC(=O)c2ccc(Br)cc2)CCC2C3CCC4=CC(=O)CC[C@]4(C)C3CC[C@@]21C (some centres undefined)	6.43
